biological target: recombinant human GREM1 (hGREM1-His; C-terminal 10His tagged, R&D, #5190-GR) (human) (UniProt O60565); test: BLI Octet, captured mAb, 100 nM GREM1 without vs with 5 uM heparin
Sequence (O60565 other isoform, or with tags, fused parts or gaps limits assumed, form in doubt): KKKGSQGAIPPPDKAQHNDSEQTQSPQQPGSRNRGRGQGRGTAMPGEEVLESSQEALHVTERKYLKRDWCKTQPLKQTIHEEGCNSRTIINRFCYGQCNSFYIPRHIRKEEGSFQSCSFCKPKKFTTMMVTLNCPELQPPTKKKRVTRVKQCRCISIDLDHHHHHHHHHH
RECORDED METRIC: Reduction in Signal from Heparin at 300 sec (nm)
Give just the number in nm; leave the unit off.

Reference set, count: 2
[
  {
    "BINDER": "H4H6250P (antibody, human IgG4, V domains shown) VH: QVQLVESGGGVVQPGRSLRLSCAASGFTFSNYGMHWVRQAPGKGLEWVAVIWYDGSNKYYADSVKGRFTISRDNSRKTLYLQMNSLRAEDTAIYYCTRDDYGDYDYPFDYWGQGTLVTVSS VL: DIQMTQSPSSLSASVGDRVTITCRASQGIRNDLGWYQQKPGKAPKRLIYAASSLQSGVPSRFSGTGSGTEFTLTISSLQPEDFATYYCLQHNSYPPFTFGPGTKVDIK",
    "NUMERIC RESULT": 0.05
  },
  {
    "BINDER": "H4H2895N (antibody, human IgG4, V domains shown) VH: EVQLVESGGGLVQPGGSLRLSCAASGFTVSSNYMSWVRQAPGKGLEWVSVIYSGGNTYYADSVKGRFTISRHNSKNTLYLQMNSLRAEDTAVYYCARDLGIKSDYWGQGTLVTVSS VL: EIVLTQSPDFQSVTPKEKVTITCRASQSIGTTLHWYQQKPDQSPKLLIKYVSQSLSGVPSRFSGSGSGTDFTLTINSLEAEDAATYYCHQSSSLPWTFGQGTKVEIK",
    "NUMERIC RESULT": -0.04
  }
]

Please look at the following binder next.
Request: Provide one value: measured Reduction in Signal from Heparin at 300 sec of H4H2892N (antibody, human IgG4, V domains shown) VH: QVQLVESGGGVVQPGRSLRLSCAASGFTFSSYGIHWVRQAPGKGLEWVAILWYDGSNKYYADSVKGRFTISRDNSKTTLYLQMNSLRAEDTAVYYCARENYNDLNFDLWGRGTLVTVSS VL: DIQLTQSPSFLSASVGDRVTITCWASQGISSYLAWYQHKPGKAPKLLIYAASTLQSGVPSRFSGSGSGIEFTLTISSLQPEDFATYYCQQLKSYPPWTFGQGTKVEIR
Response: 0

# credit: patent US20230192831A1
